- System: IRAK4
- CONDITION_CONTEXT: concentration: 1 μM, replicates: in singlicate; n = 1;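 note: KINOMEscan kinase panel screen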
We begin with a simple list: items and their reported %Inh.

SMILES_STR	%Inh, %
Cc1cnc(N)c(/C=C/c2cncc(C(=O)NCCc3ccc(Cl)cc3Cl)c2)c1.Cl	0
COc1ccc2cc(-c3nc(-c4ccccc4C(C)C)[nH]c3-c3ccncc3)ccc2c1	42
FC(F)(F)c1ccccc1-c1cc(-c2c[nH]nc2-c2ccccn2)ccn1	0

----------
- Test system: SRPK1
- CONDITION_CONTEXT: concentration: 1 μM, replicates: in singlicate; n = 1

COMPOUND	DISPLAY_UNIT	%Inh
COC(=O)C(Cc1ccccc1)NC(=O)NC1CCN(c2ccnc(Nc3ccc(F)cc3)n2)C1 (stereo not shown) [GSK1379714]	%	15
Cn1cncc1C(=O)NC1CCN(c2ccnc(Nc3ccc(F)cc3)n2)C1 (stereo not shown) [GSK1379717]	%	100
COc1ccc(Nc2nccc(N3CCC(NC(=O)C(C)c4ccc(Cl)cc4)CC3)n2)cc1 (stereo not shown) [GSK1379812]	%	10
CN1c2ccc(-c3ccc(C(N)=O)cc3)cc2-c2[nH]ncc2S1(=O)=O	%	0
FC(F)(F)c1ccccc1-c1cc(-c2c[nH]nc2-c2ccccn2)ccn1 [GW679396]	%	3
CNc1nc(-c2ccc3c(N)n[nH]c3c2)cc(N2C[C@@H](C(=O)Nc3ccccc3)CC[C@H]2C)n1 [GSK2298859]	%	33
CNc1nc(-c2ccc3c(N)n[nH]c3c2)cc(N2C[C@@H](C(=O)NC3CCCCC3)OC[C@H]2C)n1 [GSK2375584]	%	4
O=C1NC(=O)C(c2ccc(Cl)cc2)=C1Nc1ccc(O)cc1 [SB-340867]	%	18
Cc1cnc(N)c(/C=C/c2cncc(C(=O)NCCc3ccc(Cl)cc3Cl)c2)c1.Cl [GSK190937]	%	24
Cc1c(Cn2c(C)c(C)n3c(=O)cc(N4CCOCC4)nc23)cccc1C(F)(F)F [GSK2328680]	%	6

----------
We begin with a simple list: items and their reported %Inh.
- Test system: ABL2
- CONDITION_CONTEXT: concentration: 1 μM, replicates: in singlicate; n = 1

SMILES_STR	%Inh / %
COc1ccc(CSc2nnc(-c3ccc4ncsc4c3)o2)cc1C(F)(F)F	2
Cn1cnc2c(N)ncnc21	2
Cl.Cl.Cl.N#Cc1ccc(CCNc2nccc(-c3cccc(CN4CCNCC4)c3)n2)cc1	9

----------
- System: PRKD3
- CONDITION_CONTEXT: concentration: 1 μM, replicates: in singlicate; n = 1
MEASUREMENT_LABEL: %Inh (%)

COMPOUND	MEASUREMENT_LABEL	RESULT_NUMBER
COc1cccc(NC(=O)Nc2ccc(C)c(-c3ccc(C(=O)Nc4ccncc4)cc3)c2)c1	%Inh	0
COc1ccc(Nc2nccc(NCCNC(=O)Nc3cc(C)ccc3C)n2)cc1	%Inh	11
Cc1cnc(N)c(/C=C/c2cncc(C(=O)NCCc3ccc(Cl)cc3Cl)c2)c1.Cl	%Inh	0
O=C(Nc1n[nH]c2nc(-c3ccco3)c(Br)cc12)C1CCN(Cc2ccccc2)C1.O=C(O)[C@H](O)[C@@H](O)C(=O)O (stereo not drawn)	%Inh	18
COc1ccc2cc(-c3nc(-c4ccccc4C(C)C)[nH]c3-c3ccncc3)ccc2c1	%Inh	32
COc1cccc(CNC(=O)NC2CCN(c3ccnc(Nc4ccc(F)cc4)n3)C2)c1 (stereo not drawn)	%Inh	14
CCn1c(-c2ccccc2)nc2cnccc21	%Inh	0
CNc1cc(-c2ccc3c(N)n[nH]c3c2)nc(N)n1	%Inh	6
Cl.Cl.Cl.N#Cc1ccc(CCNc2nccc(-c3cccc(CN4CCNCC4)c3)n2)cc1	%Inh	0

----------
- System: ABL1-phosphorylated
- CONDITION_CONTEXT: concentration: 1 μM, replicates: in singlicate; n = 1
We begin with a simple list: items and their reported %Inh.
MEASUREMENT_LABEL: %Inh (%)

MOLECULE	EXPERIMENTAL_TARGET	RESULT_NUMBER
COc1ccc(Nc2nccc(N3CCC(NC(=O)C(C)c4ccc(Cl)cc4)C3)n2)cc1 (stereo not drawn) [GSK1379735]	ABL1-phosphorylated	0
O=c1cc(N2CCOCC2)nc2n(Cc3ccccc3F)ccn12 [GSK2297428]	ABL1-phosphorylated	0
Cc1nccc(-c2c(-c3ccc(F)cc3)ncn2CCCN2CCOCC2)n1.Cl [SB-282975]	ABL1-phosphorylated	0

----------
We begin with a simple list: items and their reported %Inh.
- Tested on: MST3
- Construct: gene STK24
- CONDITION_CONTEXT: concentration: 1 μM, replicates: in singlicate; n = 1
MEASUREMENT_LABEL: %Inh (%)

SMILES_STR	DISPLAY_UNIT	RESULT_NUMBER
O=C1NC(=O)C(c2ccc(Cl)cc2)=C1Nc1ccc(O)cc1	%	0
Fc1ccc(-c2nc3n(c2-c2ccncc2)CCS3)cc1	%	0
COc1ccc(CSc2nnc(-c3ccc4nccn4c3)o2)cc1C(F)(F)F	%	15

----------
- System: RPS6KA5(Kin.Dom.2-C-terminal)
- CONDITION_CONTEXT: concentration: 1 μM, replicates: in singlicate; n = 1

COMPOUND	%Inh, %
COc1ccc(Nc2nccc(N3CCC(NC(=O)C(C)c4ccc(Cl)cc4)CC3)n2)cc1 (centres unmarked)	42
COc1ccc(Nc2nccc(NCCNC(=O)Nc3cc(C)ccc3C)n2)cc1	0
Nc1ncnc2occ(-c3ccc4c(c3)CCN4C(=O)Cc3cc(F)ccc3F)c12	1
CC(=O)c1c(C)c2cnc(Nc3ccn(C)n3)nc2n(C2CCCC2)c1=O	3
CC(=O)c1cccc(NC(=O)NC2CCN(c3ccnc(Nc4ccc(F)cc4)n3)C2)c1 (centres unmarked)	29
CCn1c(-c2ccccc2)nc2cnccc21	0
NS(=O)(=O)c1cccc(N/C=C2\C(=O)Nc3ccc(S(=O)(=O)Cc4c(Cl)cccc4Cl)cc32)c1	0
COc1ccc2cc(-c3nc(-c4ccccc4C(C)C)[nH]c3-c3ccncc3)ccc2c1	0
Cn1cncc1C(=O)NC1CCN(c2ccnc(Nc3ccc(F)cc3)n2)C1 (centres unmarked)	0
CCc1ccc(-c2ccc3c(c2)-c2n[nH]cc2S(=O)(=O)N3C)cc1	0
COc1ccc(Nc2nccc(-c3ccc(NC(=O)c4cc5cc(F)ccc5[nH]4)cc3)n2)cc1	0
Nc1nccc(-c2c(-c3ccc(F)cc3)ncn2C2CCN(Cc3ccccc3)CC2)n1	0
CN1c2ccc(-c3ccc(C(N)=O)cc3)cc2-c2[nH]ncc2S1(=O)=O	0
Cc1c(Cn2c(C)c(C)n3c(=O)cc(N4CCOCC4)nc23)cccc1C(F)(F)F	0

----------
We begin with a simple list: items and their reported %Inh.
- System: TESK1
- CONDITION_CONTEXT: concentration: 1 μM, replicates: in singlicate; n = 1
MEASUREMENT_LABEL: %Inh (%)

COMPOUND	MEASUREMENT_LABEL	DISPLAY_UNIT	RESULT_NUMBER
Nc1nccc(-c2c(-c3ccc(F)cc3)ncn2C2CCN(Cc3ccccc3)CC2)n1	%Inh	%	0
COC(=O)C(NC(=O)NC1CCN(c2ccnc(Nc3ccc(F)cc3)n2)C1)c1ccccc1 (stereo not drawn)	%Inh	%	0
COc1ccc(CSc2nnc(-c3ccc4nccn4c3)o2)cc1C(F)(F)F	%Inh	%	12

----------
- Tested on: EPHA3
- CONDITION_CONTEXT: concentration: 1 μM, replicates: in singlicate; n = 1

MOLECULE	%Inh (%)
Cc1ccc(-c2nc(Nc3ccncc3)c3ccccc3n2)s1	0
O=C(Nc1n[nH]c2nc(-c3ccco3)c(Br)cc12)C1CCN(Cc2ccccc2)C1.O=C(O)[C@H](O)[C@@H](O)C(=O)O (stereo not shown)	16
Cc1nccc(-c2c(-c3ccc(F)cc3)ncn2CCCN2CCOCC2)n1.Cl	0
Cn1cncc1-c1cc2c(Nc3ccc(OCc4ccccc4)cc3)ncnc2cn1	0
CC(=O)c1cccc(NC(=O)NC2CCN(c3ccnc(Nc4ccc(F)cc4)n3)C2)c1 (stereo not shown)	19
Fc1ccc(-c2nn3cccc(F)c3c2-c2ccncc2)cc1	2
COc1ccc(CSc2nnc(-c3ccc4nccn4c3)o2)cc1C(F)(F)F	8
CN1c2ccc(-c3ccc(C(N)=O)cc3)cc2-c2[nH]ncc2S1(=O)=O	0
Nc1ncnc2occ(-c3ccc4c(c3)CCN4C(=O)Cc3cc(F)ccc3F)c12	12
Cc1ccc(NC(=O)Nc2ccc(Cl)c(C(F)(F)F)c2)cc1-c1ccc(C(=O)Nc2ccncc2)cc1	19
COc1ccc(Nc2nccc(-c3ccc(NC(=O)c4cc5cc(F)ccc5[nH]4)cc3)n2)cc1	1
Cc1cnc(N)c(/C=C/c2cncc(C(=O)NCCc3ccc(Cl)cc3Cl)c2)c1.Cl	16
CC(C)c1ccc(O)cc1Nc1ccnc2ccc(C(F)(F)F)cc12	0

----------
- Tested on: DRAK1
- Construct: gene STK17A
- CONDITION_CONTEXT: concentration: 1 μM, replicates: in singlicate; n = 1

COMPOUND	EXPERIMENTAL_TARGET	%Inh (%)
COc1ccc(Nc2nccc(N3CCC(NC(=O)C(C)c4ccc(Cl)cc4)C3)n2)cc1 (centres unmarked) [GSK1379735]	DRAK1	8
CCc1ccc(-c2ccc3c(c2)-c2n[nH]cc2S(=O)(=O)N3C)cc1	DRAK1	0
Cc1ccccc1Cn1ccn2c(=O)cc(N3CCOCC3)nc12 [GSK2269905]	DRAK1	0
COc1ccc2cc(-c3nc(-c4ccccc4C(C)C)[nH]c3-c3ccncc3)ccc2c1 [SB-660566]	DRAK1	6
COC(=O)C(NC(=O)NC1CCN(c2ccnc(Nc3ccc(F)cc3)n2)C1)c1ccccc1 (centres unmarked) [GSK1379712]	DRAK1	2
O=C(Nc1n[nH]c2nc(-c3cccs3)c(Br)cc12)C1CC1 [SB-735297]	DRAK1	25
O=c1cc(N2CCOCC2)nc2n(Cc3cccc(Cl)c3Cl)c3ccccc3n12 [GSK2299009]	DRAK1	3
Fc1ccc(-c2nc[nH]c2-c2ccncc2)cc1 [SB-217360]	DRAK1	0
